experiment: self-splicing fitness, log relative to wild type (ln ratio); higher = more splicing; Tetrahymena group I intron in knt gene, E. coli kanamycin selection, DiMSum; sequences stand for … in CUCUCU…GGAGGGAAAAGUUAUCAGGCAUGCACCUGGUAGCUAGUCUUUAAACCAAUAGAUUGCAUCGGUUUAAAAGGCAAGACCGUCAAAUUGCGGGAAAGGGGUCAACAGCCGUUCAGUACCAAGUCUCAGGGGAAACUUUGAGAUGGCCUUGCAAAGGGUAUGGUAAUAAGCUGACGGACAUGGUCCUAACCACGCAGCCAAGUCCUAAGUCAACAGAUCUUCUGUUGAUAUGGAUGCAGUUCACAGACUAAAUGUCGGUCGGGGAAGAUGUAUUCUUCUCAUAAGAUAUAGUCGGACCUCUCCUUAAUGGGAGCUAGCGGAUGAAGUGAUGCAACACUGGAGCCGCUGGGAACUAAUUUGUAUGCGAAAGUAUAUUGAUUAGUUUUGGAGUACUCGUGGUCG; conditions: 30 °C;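 also: selection with 25 µg/mL kanamycin versus none on LB agar overnight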
recorded-metric: self-splicing fitness (ln)

Solved cases (10 shown):
sequence-code	assay-value
ACUGAGCAAUAUUACGCUGU	-3.42
AACCAGCAAUAUUACGCGAU	-3.69
UUCCAGCAAUAUUACGUAAA	-0.607
GGUGAGCAAUAUUACGCGAU	-3.7
GUUCAGCAAUAUUACGGAAG	-0.667
CGUUAGCAAUAUUACGGAUC	-2.18
CCGGAGCAAUAUUACGACCG	-1.71
GUGAAGCAAUAUUACGCCCU	-0.176
GCAAAGCAAUAUUACGUGGC	-3.38
CUGUAGCAAUAUUACGAAAU	-3.22

Ask: self-splicing fitness (ln) lookup needed for `GAUGAGCAAUAUUACGAUAC` , thanks.
Result: -3.7

Ask: What value of measured self-splicing fitness (ln) is listed for `AUGUAGCAAUAUUACGGGCC` ?
Result: -2.93

Ask: Entry `UUGCAGCAAUAUUACGCAUU` : reported self-splicing fitness (ln) = ?
Result: -1.92

Ask: Requested field: self-splicing fitness (ln). Item: `AGACAGCAAUAUUACGUCGA`
Result: -1.01

Ask: Field request: self-splicing fitness (ln) | item: `CGCGAGCAAUAUUACGUUAU`
Result: -3.91

Ask: Given the entry `CGCAAGCAAUAUUACGAGCC` , report its measured self-splicing fitness (ln).
Result: -1.07

Cited source for all entries: the supplement of paper PMC7877785
